# credit: PubChem BioAssay (NCI)

Assay: NCI Yeast Anticancer Drug Screen. Data for the cln2 rad14 strain (AID 165);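 also: 0% = growth equal to vehicle treated cultures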
Details: S. cerevisiae cln2 rad14 strain, at 50.0 µM, active compounds read high
About 79,000 compounds went through this panel and 15% of them were active in at least one assay; those are over-represented in the sample as a whole.
Measure Name: growth inhibition (%)
Numeric only. Scale: %

Look up growth inhibition: CCC1(CC)C(=O)N(C(=O)c2ccc(C)cc2)N(C(=O)c2ccc(C)cc2)C1=O 18.1

Try this compound next: CCCCCCCCCCCCCCCCSc1ccc(Br)cc1 1.8

Try this compound next: CCC(CC)c1ccc2ccccc2c1 -19.6

Try this compound next: O=C(CCCC(=O)N/N=C/c1ccc(I)cc1)N/N=C\c1ccc(I)cc1 25.1

Try this compound next: COC(=O)c1ncn(C(C(=O)OC)C(=O)OC)c1O -14.4

Try this compound next: CN(/N=C/c1ccccn1)C1=NCCCCN1 22.2

Try this compound next: COc1cc(-c2cc(CCC(=O)Nc3ccccc3[N+](=O)[O-])n(-c3ccc([N+](=O)[O-])cc3[N+](=O)[O-])n2)ccc1O 31.8

Try this compound next: CN(C)OC(=O)Nc1cccc([N+](=O)[O-])c1 -82.8

Try this compound next: O=[N+]([O-])c1ccc(N=CC2CCC=CO2)cc1 (stereo unspecified) -27.9

Try this compound next: CCN(CC)Cc1ccccc1COC(=O)c1ccc(OC)cc1 -15.2

Try this compound next: CCC(C(=O)O)C(=O)O.[NH-]CC1CCCC[N-]1.[Pt+2] 7.95

Try this compound next: CC(=O)OC(OC(C)=O)c1cccc2ccccc12 -15.9

Try this compound next: COc1ccc2c(c1)CCC1=C2CCC(C(=O)O)C1(C)C(=O)O (stereo unspecified) 4.15

Try this compound next: OCc1ccc(F)cc1CO -17.1

Try this compound next: CCCCNc1nc(Cl)nc(C(F)(F)F)c1N -29.8

Try this compound next: CC1=CC2=NCC(O)CN2C=C1 (stereo unspecified) 12.8

Try this compound next: O/N=C/c1cc2c(cc1Br)OCO2 -9.75

Try this compound next: Cc1cc(=O)c2cc([N+](=O)[O-])ccc2[nH]1 -5.95

Try this compound next: C/C=C/c1cc(C=O)cc(OC)c1O -10.6

Try this compound next: CN(C)c1ccc(C=O)cc1[N+](=O)[O-] -31.8

Try this compound next: O=Cc1ccc(/C=C2\NC(=O)NC2=O)cc1 -0.05

Try this compound next: Cc1c(Cl)c(N)c(Cl)c(Cl)c1Cl -7.3

Try this compound next: COCCOC(=O)c1ccccc1Cl 8.8

Try this compound next: N#Cc1c(-c2cccn(-c3ccccc3)c2=O)cc(-c2ccccc2)[nH]c1=O -19.1

Try this compound next: CCC(=O)Nc1nnc(SCCCCCCCCCCSc2nnc(NC(=O)CC)s2)s1 19.3

Try this compound next: Cc1cc(=O)c2c(Br)ccc(Br)c2[nH]1 3.4
